Tested on: RAW264.7
Assay overview: Antiinflammatory activity against mouse RAW264.7 cells assessed as inhibition of LPS-induced NO production preincubated for 2 hrs followed by LPS stimulation measured after 24 hrs by Griess reagent based assay
Format: functional, cell-based
pIC50: −log10 of the molar value.
Observable: pIC50

[[record]]
compound = "C/C1=C\\CC(C)(C)/C=C/C(=O)/C(C)=C/CC1 [ZERUMBONE]"
observable = "pIC50"
reported_value = 4.87

[[record]]
compound = "COC1CC/C(C)=C/CC(C)(C)/C=C/C(=O)C1CO (stereo not drawn)"
observable = "pIC50"
reported_value = 4.74

[[record]]
compound = "COc1ccc2c(c1)c(CC(=O)O)c(C)n2C(=O)c1ccc(Cl)cc1 [INDOMETHACIN]"
observable = "pIC50"
reported_value = 4.47

[[record]]
compound = "CO[C@H]1CC/C(C)=C/CC(C)(C)/C=C/C(=O)[C@@H]1CO"
observable = "pIC50"
reported_value = 4.38

[[record]]
compound = "C/C1=C\\CC(C)(C)/C=C/C(=O)[C@H](CO)CCC1"
observable = "pIC50"
reported_value = 4.48

[[record]]
compound = "CO[C@@H]1CC/C(C)=C/CC(C)(C)/C=C/C(=O)[C@H]1CO"
observable = "pIC50"
reported_value = 4.57

[[record]]
compound = "C/C1=C\\CC(C)(C)/C=C/C(=O)[C@@H](CO)CCC1"
observable = "pIC50"
reported_value = 4.15

[[record]]
compound = "C/C1=C\\CC[C@@]2(C)O[C@@H]2CC(C)(C)/C=C/C1=O [ZERUMBONE EPOXIDE]"
observable = "pIC50"
reported_value = 4.65

